Data credit: ChEMBL document CHEMBL5576088

- Experimental System: Transient receptor potential cation channel subfamily A member 1 (Homo sapiens)
- Sequence (O75762 whole entry): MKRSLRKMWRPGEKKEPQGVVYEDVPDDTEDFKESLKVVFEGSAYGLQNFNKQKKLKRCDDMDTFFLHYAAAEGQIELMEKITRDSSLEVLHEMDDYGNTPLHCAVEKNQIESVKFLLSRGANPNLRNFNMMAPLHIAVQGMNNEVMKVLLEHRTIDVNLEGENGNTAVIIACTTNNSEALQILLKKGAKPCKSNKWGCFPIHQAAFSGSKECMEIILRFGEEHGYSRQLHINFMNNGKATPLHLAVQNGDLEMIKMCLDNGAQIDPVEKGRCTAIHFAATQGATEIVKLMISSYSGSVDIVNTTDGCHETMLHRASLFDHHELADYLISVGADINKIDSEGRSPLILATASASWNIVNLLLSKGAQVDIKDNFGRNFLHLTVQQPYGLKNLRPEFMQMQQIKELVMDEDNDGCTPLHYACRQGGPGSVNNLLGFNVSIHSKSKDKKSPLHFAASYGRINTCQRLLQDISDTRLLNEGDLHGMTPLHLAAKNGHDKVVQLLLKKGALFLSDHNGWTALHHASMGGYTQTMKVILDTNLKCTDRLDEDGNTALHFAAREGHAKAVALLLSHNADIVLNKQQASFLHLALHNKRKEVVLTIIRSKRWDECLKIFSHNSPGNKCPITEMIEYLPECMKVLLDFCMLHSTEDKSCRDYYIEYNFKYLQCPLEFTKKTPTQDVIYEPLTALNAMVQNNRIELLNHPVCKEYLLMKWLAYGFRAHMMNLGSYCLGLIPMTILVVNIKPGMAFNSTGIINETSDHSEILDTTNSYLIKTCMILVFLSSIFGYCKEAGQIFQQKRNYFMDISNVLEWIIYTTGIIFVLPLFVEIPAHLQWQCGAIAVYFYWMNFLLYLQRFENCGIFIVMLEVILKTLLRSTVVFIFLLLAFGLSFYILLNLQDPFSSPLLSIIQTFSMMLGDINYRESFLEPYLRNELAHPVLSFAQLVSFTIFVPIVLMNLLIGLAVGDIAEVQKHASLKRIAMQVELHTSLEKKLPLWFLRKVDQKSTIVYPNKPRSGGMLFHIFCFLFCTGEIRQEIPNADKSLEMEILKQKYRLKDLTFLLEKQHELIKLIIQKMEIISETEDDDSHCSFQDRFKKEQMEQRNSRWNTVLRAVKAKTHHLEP
- Experimental Protocol: Antagonist activity at full length human TRPA1 expressed in HEK293 cells assessed as inhibition of AITC-induced intracellular Ca2+ flux in presence of 10 uM AITC by Fluo4-AM dye based fluorescence analysis
- Format: cell-based
pIC50: −log10 of the molar value.
Readout Name: pIC50

(I) CC(=C\c1ccc(Cl)cc1)/C(C)=N/O [AP18 5]
(II) CC1(C)C2CCC1(C)C(O)C2 (racemic) [BORNEOL]
Thinking about recorded pIC50 values, which is higher, I or II ? To answer, give the label that identifies your chosen option.
I
(I: 5.76, II: 3.28)

---

- Experimental System: Transient receptor potential cation channel subfamily A member 1 (Homo sapiens)
- Experimental Protocol: Antagonist activity at human TRPA1 expressed in HEK293 cells assessed as inhibition of AITC-induced intracellular Ca2+ flux in presence of 5 uM AITC by Fluo4-AM dye based fluorescence analysis
- Format: cell-based
Readout Name: IC50 (µM)

(P) CC(CCO)CC(C)c1ccccc1 (mixture of isomers)
(Q) C/C(=C\C(C)c1ccccc1)CO (racemic)
Thinking about recorded IC50 values, which is higher, P or Q ? To answer, give the label that identifies your chosen option.
Q
